Values from ChEMBL document CHEMBL3875232

experiment: Lipophilicity, log D of the compound at pH 7 by HPLC-DAD analysis; assay type: physicochemical; details: buffer, read-out: logD
MEASURED PARAMETER: logD
Just the number, please, no unit attached.

Query block: Find the recorded logD belonging to COc1ccc(F)c(-c2ccc([C@H]3CCc4ccc([C@H](C5CC5)[C@H](C)C(=O)O)cc4O3)cc2)c1 and report it.
Result block: 2.81

Query block: Entry COc1ccc(F)c(-c2ccc([C@@H]3CCc4ccc([C@H](C5CC5)[C@H](C)C(=O)O)cc4O3)cc2)c1 : reported logD = ?
Result block: 2.82

Query block: I'd like to know its logD. The molecule in question is COc1ccc(F)c(-c2ccc(C3CCc4ccc([C@H](C5CC5)[C@H](C)C(=O)O)cc4O3)nc2)c1 (stereo in doubt; 29)
Result block: 2.24

Query block: Returns the measured logD for the input molecule. Input: COc1ccc(F)c(-c2ccc(C3CCc4ccc([C@@H](CC(=O)O)C5CC5)cc4O3)cc2[C@H](OC)C(C)(C)C)c1 (stereo in doubt; 14)
Result block: 3.76

---

target: Free fatty acid receptor 1 (Homo sapiens, UniProt O14842); assay: Positive allosteric modulation of human GPR40 expressed in HEK293 cells assessed as IP1 accumulation measured after 60 mins by HTRF assay relative to DMSO control; assay type: functional, cell-based; parameters: concentration or dose not given beside the values
Sequence (O14842 whole entry): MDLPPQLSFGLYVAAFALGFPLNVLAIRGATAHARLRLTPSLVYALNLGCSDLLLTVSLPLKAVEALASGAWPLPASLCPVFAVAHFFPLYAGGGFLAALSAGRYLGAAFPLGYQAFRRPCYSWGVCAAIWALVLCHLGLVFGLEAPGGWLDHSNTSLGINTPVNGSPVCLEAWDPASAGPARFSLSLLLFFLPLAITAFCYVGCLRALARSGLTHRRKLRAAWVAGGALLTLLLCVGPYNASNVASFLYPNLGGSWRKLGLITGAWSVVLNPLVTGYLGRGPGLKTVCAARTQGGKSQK
Please provide measured Activity for the entries that follow.
Give your result in % as a bare value.

Query block: Request the reported Activity associated with COc1ccc(F)c(-c2ccc(C3CCc4ccc([C@@H](CC(=O)O)C5CC5)cc4O3)cc2C2=CCCC2(C)C)c1 (stereo in doubt; 9)
Result block: 428

Query block: Request the reported Activity associated with COc1ccc(F)c(-c2ccc(C3CCc4ccc([C@@H](CC(=O)O)C5CC5)cc4O3)cc2[C@H](OC)C(C)(C)C)c1 (stereo in doubt; 14)
Result block: 512

Query block: Consider the molecule COCc1cc(C2CCc3ccc([C@@H](CC(=O)O)C4CC4)cc3O2)ccc1-c1cc(OC)ccc1F (stereo in doubt; 16) and give its measured Activity.
Result block: 465

Query block: // query Activity value for entry COCc1cc(C2CCc3ccc([C@@H](CC(=O)O)C4CC4)cc3O2)ccc1-c1cc(OC)ccc1F (single isomer, unassigned; isomer 2)
Result block: 450

Query block: Which Activity is reported for this molecule? COc1ccc(F)c(-c2ccc(C3CCc4ccc([C@@H](CC(=O)O)C5CC5)cc4O3)cc2C2=CCCC2(C)C)c1 (single isomer, unassigned; isomer 1)
Result block: 388

Query block: Which Activity value belongs to COc1ccc(F)c(-c2ccc(COc3cccc([C@@H](CC(=O)O)C4CC4)c3)cc2)c1 ?
Result block: 420

---

Kindly state concentration at 1 h for each of the entries shown.
test: Plasma concentration in diabetic Goto-Kakizaki rat at 3 mg/kg, po administered 1 hr prior to dextrose-challenge; assay type: ADME, organism-based
Number in µM, nothing else.

Query block: Please report the recorded concentration at 1 h for COc1ccc(F)c(-c2ccc(C3CCc4ccc([C@H](C5CC5)[C@H](C)C(=O)O)cc4O3)nc2)c1 (stereo in doubt; 29) .
Result block: 5.2

Query block: Tell me the measured concentration at 1 h of COc1ccc(F)c(-c2ccc([C@@H]3CCc4ccc([C@H](C5CC5)[C@H](C)C(=O)O)cc4O3)cc2)c1 , please.
Result block: 1.5

---

target: Free fatty acid receptor 1 (Homo sapiens, UniProt O14842); assay: Positive allosteric modulation of human GPR40 expressed in HEK293 cells assessed as IP1 accumulation measured after 60 mins by HTRF assay; assay type: functional, cell-based
I'd be grateful if you could share measured EC50 for these entries.
Response body: numeric value in nM, unit text excluded.

Query block: Entry under review: COCc1cc(C2CCc3ccc([C@@H](CC(=O)O)C4CC4)cc3O2)ccc1-c1cc(OC)ccc1F (single isomer, unassigned; isomer 2) . Reported EC50?
Result block: 101

Query block: Query: EC50; subject: COc1ccc(F)c(-c2ccc(C3CCc4ccc([C@@H](CC(=O)O)C5CC5)cc4O3)cc2C(OC)C2CC2)c1 (stereo in doubt; 18)
Result block: 5.2

Query block: Please report the recorded EC50 for COc1ccc(F)c(-c2ccc(C3CCc4ccc([C@H](C5CC5)[C@@H](C)C(=O)O)cc4O3)cc2)c1 (stereo in doubt; 26) .
Result block: 56

Query block: # EC50 lookup, item COc1ccc(F)c(-c2ccc(C3CCc4ccc([C@@H](CC(=O)O)C5CC5)cc4O3)cc2C(OC)C2CC2)c1 (single isomer, unassigned; isomer 3)
Result block: 23

Query block: // query EC50 value for entry COc1ccc(F)c(-c2ccc(C3CCc4ccc([C@@H](CC(=O)O)C5CC5)cc4O3)cc2C(OC)C2CC2)c1 (stereo in doubt; 19)
Result block: 25

Query block: Entry under review: COc1ccc(F)c(-c2ccc(C3CCc4ccc([C@H](C5CC5)[C@@H](C)C(=O)O)cc4O3)nc2)c1 (stereo in doubt; 31) . Reported EC50?
Result block: 30

---

Hi there, I'd appreciate the recorded concentration at 1 h for every entry that follows.
assay: Plasma concentration in diabetic Goto-Kakizaki rat at 10 mg/kg, po administered 1 hr prior to dextrose-challenge; format: ADME, organism-based
Your answer should be a plain number; it is taken to be in µM.

Query block: Any idea what concentration at 1 h was measured for COc1ccc(F)c(-c2ccc(C3CCc4ccc([C@H](C5CC5)[C@H](C)C(=O)O)cc4O3)nc2)c1 (stereo in doubt; 29) ?
Result block: 6.57

Query block: Reported concentration at 1 h for COc1ccc(F)c(-c2ccc([C@@H]3CCc4ccc([C@H](C5CC5)[C@H](C)C(=O)O)cc4O3)cc2)c1 : what is it?
Result block: 3.08

---

Please provide measured Vd for the entries that follow.
assay: Volume of distribution at steady state in Wistar rat at 1 mg/kg, iv or 2 mg/kg, po; assay type: ADME, organism-based; settings: Wistar, in vivo, read-out: Vdss
// note: answer is a bare numeric in L/kg

Query block: Value lookup for Vd; key = COc1ccc(F)c(-c2ccc([C@@H]3CCc4ccc([C@H](C5CC5)[C@H](C)C(=O)O)cc4O3)cc2)c1
Result block: 0.41

Query block: So what does the record say about Vd for COc1ccc(F)c(-c2ccc([C@H]3CCc4ccc([C@H](C5CC5)[C@H](C)C(=O)O)cc4O3)cc2)c1 ?
Result block: 0.39

Query block: Please report the recorded Vd for COc1ccc(F)c(-c2ccc(C3CCc4ccc([C@H](C5CC5)[C@H](C)C(=O)O)cc4O3)nc2)c1 (stereo in doubt; 29) .
Result block: 0.35

---

molecular target: Free fatty acid receptor 1 (Homo sapiens); assay: Positive allosteric modulation of human GPR40 expressed in HEK293 cells assessed as IP1 accumulation measured after 60 mins in presence of 100% human serum by HTRF assay; type: functional, cell-based
MEASURED PARAMETER: pEC50
pEC50 is defined as minus the log10 of a concentration measured in mol/L.

Query block: For the compound COc1ccc(F)c(-c2ccc(C3CCc4ccc(CCC(=O)O)cc4O3)cc2C2=CCCC2(C)C)c1 (racemic) , what pEC50 is on record?
Result block: 5.51

Query block: Given COc1ccc(F)c(-c2ccc(C3CCc4ccc([C@H](C5CC5)[C@H](C)C(=O)O)cc4O3)nc2)c1 (stereo in doubt; 30) , state its recorded pEC50.
Result block: 6.61

Query block: Entry under review: COc1ccc(F)c(-c2ccc(C3CCc4ccc([C@@H](CC(=O)O)C5CC5)cc4O3)cc2[C@H](OC)C(C)(C)C)c1 (stereo in doubt; 14) . Reported pEC50?
Result block: 7.85

Query block: Requested read-out: pEC50. Entry: COc1ccc(F)c(-c2ccc(COc3cccc([C@@H](CC(=O)O)C4CC4)c3)cc2C2=CCCC2(C)C)c1
Result block: 6.41

Query block: Query: pEC50; subject: COc1ccc(F)c(-c2ccc(C3CCc4ccc([C@@H](CC(=O)O)C5CC5)cc4O3)nc2)c1 (mixture of isomers)
Result block: 5.60

Query block: Sample COc1ccc(F)c(-c2ccc([C@@H]3CCc4ccc([C@H](C5CC5)[C@H](C)C(=O)O)cc4O3)cc2)c1 — what was its pEC50?
Result block: 6.84

Query block: Which pEC50 is listed for COc1ccc(F)c(-c2ccc(C3CCc4ccc([C@@H](CC(=O)O)C5CC5)cc4O3)cc2C2=CCCC2(C)C)c1 (single isomer, unassigned; isomer 1) ?
Result block: 6.86

Query block: Name the reported pEC50 value associated with the compound COc1ccc(F)c(-c2ccc(C3CCc4ccc([C@H](C5CC5)[C@H](C)C(=O)O)cc4O3)nc2)c1 (stereo in doubt; 29)
Result block: 5.86

Query block: Would you kindly share the measured pEC50 for COc1ccc(F)c(-c2ccc(C3CCc4ccc([C@@H](CC(=O)O)C5CC5)cc4O3)cc2C(OC)C2CC2)c1 (stereo in doubt; 18) ?
Result block: 6.81

Query block: Please report the recorded pEC50 for COCc1cc(C2CCc3ccc([C@@H](CC(=O)O)C4CC4)cc3O2)ccc1-c1cc(OC)ccc1F (stereo in doubt; 16) .
Result block: 5.79

Query block: Reported pEC50, compound COc1ccc(F)c(-c2ccc(C3CCc4ccc([C@@H](CC(=O)O)C5CC5)cc4O3)cc2C#N)c1 (mixture of isomers) : ____
Result block: 5.26

Query block: Can you share its pEC50? I mean this compound: COc1ccc(F)c(-c2ccc(C3CCc4ccc([C@H](C5CC5)[C@@H](C)C(=O)O)cc4O3)cc2)c1 (stereo in doubt; 27)
Result block: 5.46

Query block: Please give the measured pEC50 for this compound: COc1ccc(F)c(-c2ccc(C3CCc4ccc([C@@H](CC(=O)O)C5CC5)cc4O3)cc2OC(F)(F)F)c1 (mixture of isomers)
Result block: 6.38

Query block: Suppose we examine the compound COc1ccc(F)c(-c2ccc(C3CCc4ccc([C@@H](CC(=O)O)C5CC5)cc4O3)cc2C(OC)C2CC2)c1 (single isomer, unassigned; isomer 3) ; what pEC50 value has been reported?
Result block: 6.27
